Provide the reported % Antifeedent Activity of each item.
- Tested on: Euschistus heros-Neotropical Brown Stink Bugs
- runDescription: Stink bug feeding damage on soybean pods
- Type: in vivo
- conditionNotes: 3% compound, soybean plants at R6 stage, 48 hours
Answers are plain numbers, in %.

{"compound": "CC(C)=CCC/C(C)=C/CC1CCCC1O (centres unmarked) [Apritol]", "% Antifeedent Activity [%]": 60}
{"compound": "CC/C(C)=C/CC/C(C)=C/CC1CCCC1=O (centres unmarked) [Methyl Apritone]", "% Antifeedent Activity [%]": 60}
{"compound": "CC(C)=CCC/C(C)=C/CC1CCCC1=O (centres unmarked) [Apritone, apritone]", "% Antifeedent Activity [%]": 60}
{"compound": "CCCCCCCCCC1CCC(=O)O1 (centres unmarked) [Gamma Tridecalactone]", "% Antifeedent Activity [%]": 80}
{"compound": "CCCCCC1C(=O)CCC1CC(=O)OCCC (centres unmarked) [Propyl Dihydrojasmonate]", "% Antifeedent Activity [%]": 100}
{"compound": "CCCCCC1C(=O)CCC1CC(=O)OC (centres unmarked) [Methyl Dihydrojasmonate]", "% Antifeedent Activity [%]": 90}

Hi there! I need % Antifeedent Activity for each item below, if you can.
1. CCCCCCCC1CCCC(=O)O1 (centres unmarked) [Delta-dodecalactone]
2. CCCCCC1C(O)CCC1CC(=O)OC (centres unmarked) [Methyl dihydrojasmolate]

1: 80; 2: 90

---

- Tested on: granary weevils
- runDescription: Granary weevil test on treated wheat kernels
- Format: in vivo
- conditionNotes: 5% in isopropyl alcohol, 3 week period
measurementType: Increased Repellency vs. Control Repellency (%)
Give bare numbers, in %.

{"compound": "CCCC1CC(=O)C=C(C)C1 (centres unmarked)", "measuredTarget": "granary weevils", "unitDescriptor": "%", "numericResult": 66}
{"compound": "CCCCCCCCCC1CCC(=O)O1 (centres unmarked)", "measuredTarget": "granary weevils", "unitDescriptor": "%", "numericResult": 40}
{"compound": "CC1=CC(O)CC(CC(C)C)C1 (centres unmarked)", "measuredTarget": "granary weevils", "unitDescriptor": "%", "numericResult": 86}

Hi there! I need Increased Repellency vs. Control Repellency for each item below, if you can.
1. CC/C(C)=C/CC/C(C)=C/CC1CCCC1=O (centres unmarked)
2. CCCCCC1C(=O)CCC1CC(=O)OCCC (centres unmarked) [Propyl Dihydrojasmonate]

[11, 8]

---

- Tested on: Tineola spp.
- runDescription: Clothes moth feeding damage on silk fabric, choice test
- Format: in vivo
- conditionNotes: 3% compound; silk disks; late instar larvae; 24 hours; control 50/50
Provide the reported Individuals choosing to feed on each disk: Untreated of each item.
Give bare numbers.

Hi there! I need Individuals choosing to feed on each disk: Untreated for each item below, if you can.
1. CCCCCCCC1CCCC(=O)O1 (centres unmarked)
2. CC/C(C)=C/CC/C(C)=C/CC1CCCC1=O (centres unmarked)
3. CCCCCC1C(=O)CCC1CC(=O)OCCC (centres unmarked) [Propyl Dihydrojasmonate]
4. CCCCCC1C(=O)CCC1CC(=O)OC (centres unmarked) [Methyl Dihydrojasmonate]

90
80
80
80

---

- System: Leptinotarsa decemlineata-Colorado Potatoe Beetles
- runDescription: Choice feeding assay on potato leaf disks
- Assay type: in vivo
- conditionNotes: 3% compound, larvae, 24 h
measurementType: % Repellency (%)
Answers are plain numbers, in %.

Solved entries:
{"molecule": "CCCCCC1C(=O)CCC1CC(=O)OCCC (centres unmarked) [Propyl Dihydrojasmonate]", "unitDescriptor": "%", "% Repellency": 15}
{"molecule": "CCCCCCCC1CCCC(=O)O1 (centres unmarked) [Delta-dodecalactone]", "unitDescriptor": "%", "% Repellency": 40}

Hi there! I need % Repellency for each item below, if you can.
1. CCCCCCCCCC1CCC(=O)O1 (centres unmarked) [Gamma Tridecalactone]
2. CCCCCC1C(O)CCC1CC(=O)OC (centres unmarked) [Methyl dihydrojasmolate]
3. CC/C(C)=C/CC/C(C)=C/CC1CCCC1=O (centres unmarked) [Methyl Apritone]
4. CC(C)=CCC/C(C)=C/CC1CCCC1O (centres unmarked) [Apritol]
5. CCCCCC1C(=O)CCC1CC(=O)OC (centres unmarked) [Methyl Dihydrojasmonate]
6. CC(C)=CCC/C(C)=C/CC1CCCC1=O (centres unmarked) [Apritone, apritone]

1. 40
2. 15
3. 15
4. 15
5. 15
6. 15

---

- System: Dermestid spp.
- runDescription: Dermestid beetle feeding damage on silk fabric
- Format: in vivo
- conditionNotes: 3% compound; undyed silk disks; late instar larvae; 1 week
Provide the reported % Repellency of each item.
One number for each entry, in %.

Solved entries:
{"molecule": "CCCCCC1C(=O)CCC1CC(=O)OCCC (centres unmarked) [Propyl Dihydrojasmonate]", "measurementType": "% Repellency", "numericResult": 15}
{"molecule": "CCCCCC1C(O)CCC1CC(=O)OC (centres unmarked) [Methyl dihydrojasmolate]", "measurementType": "% Repellency", "numericResult": 15}
{"molecule": "CC(C)=CCC/C(C)=C/CC1CCCC1O (centres unmarked)", "measurementType": "% Repellency", "numericResult": 15}

Hi there! I need % Repellency for each item below, if you can.
1. CC/C(C)=C/CC/C(C)=C/CC1CCCC1=O (centres unmarked)
2. CCCCCCCCCC1CCC(=O)O1 (centres unmarked)
3. CCCCCC1C(=O)CCC1CC(=O)OC (centres unmarked) [Methyl Dihydrojasmonate]
4. CCCCCCCC1CCCC(=O)O1 (centres unmarked)
5. CC(C)=CCC/C(C)=C/CC1CCCC1=O (centres unmarked)

[15, 40, 15, 40, 15]

---

- Tested on: sharpshooters
- runDescription: Leafhopper repellency on citrus choice assays
- Format: in vivo
- conditionNotes: 3% compound; citrus seedlings; 100 sharpshooters per cage; control 50/50
measurementType: Number of Psyllids Choosing each Treatment: Treated

Solved entries:
{"compound": "CCCCCC1C(O)CCC1CC(=O)OC (centres unmarked) [Methyl dihydrojasmolate]", "measuredTarget": "sharpshooters", "result": 30}
{"compound": "CCCCCC1C(=O)CCC1CC(=O)OC (centres unmarked) [Methyl Dihydrojasmonate]", "measuredTarget": "sharpshooters", "result": 30}
{"compound": "CC(C)=CCC/C(C)=C/CC1CCCC1O (centres unmarked)", "measuredTarget": "sharpshooters", "result": 30}
{"compound": "CC/C(C)=C/CC/C(C)=C/CC1CCCC1=O (centres unmarked)", "measuredTarget": "sharpshooters", "result": 30}
{"compound": "CCCCCCCCCC1CCC(=O)O1 (centres unmarked)", "measuredTarget": "sharpshooters", "result": 20}
{"compound": "CCCCCC1C(=O)CCC1CC(=O)OCCC (centres unmarked) [Propyl Dihydrojasmonate]", "measuredTarget": "sharpshooters", "result": 30}
{"compound": "CC(C)=CCC/C(C)=C/CC1CCCC1=O (centres unmarked)", "measuredTarget": "sharpshooters", "result": 30}

Attention now turns to another entry.
Find Number of Psyllids Choosing each Treatment: Treated (sharpshooters) for the entry CCCCCCCC1CCCC(=O)O1 (centres unmarked)
20

---

Provide the reported Number of Psyllids Choosing each Treatment: Treated of each item.
- Test system: psyllids
- runDescription: Psyllid repellency on potato choice assays
- Type: in vivo
- conditionNotes: 3% compound; potato plants; 100 psyllids per cage; control 50/50
Answers are plain numbers.

Hi there! I need Number of Psyllids Choosing each Treatment: Treated for each item below, if you can.
1. CCCCCC1C(=O)CCC1CC(=O)OCCC (centres unmarked) [Propyl Dihydrojasmonate]
2. CCCCCC1C(=O)CCC1CC(=O)OC (centres unmarked) [Methyl Dihydrojasmonate]
3. CCCCCCCCCC1CCC(=O)O1 (centres unmarked) [Gamma Tridecalactone]

[30, 30, 20]

Hi there! I need Number of Psyllids Choosing each Treatment: Treated for each item below, if you can.
1. CCCCCCCC1CCCC(=O)O1 (centres unmarked) [Delta-dodecalactone]
2. CC(C)=CCC/C(C)=C/CC1CCCC1=O (centres unmarked) [Apritone, apritone]

20
30

---

Provide the reported Individuals choosing to feed on each disk: Untreated of each item.
- Test system: Tineola spp.
- runDescription: Clothes moth feeding damage on silk fabric, choice test
- Format: in vivo
- conditionNotes: 3% compound; silk disks; late instar larvae; 24 hours; control 50/50

Solved entries:
{"compound": "CCCCCC1C(O)CCC1CC(=O)OC (stereo not shown) [Methyl dihydrojasmolate]", "result": 80}
{"compound": "CC(C)=CCC/C(C)=C/CC1CCCC1=O (stereo not shown)", "result": 80}

Hi there! I need Individuals choosing to feed on each disk: Untreated for each item below, if you can.
1. CCCCCCCCCC1CCC(=O)O1 (stereo not shown)
2. CC(C)=CCC/C(C)=C/CC1CCCC1O (stereo not shown)

90
80
